Recorded Population Membrane Permeable-Phenotype (%) by entry
# Tested on: U2OS
# ASSAY SUMMARY: Multiplex assay against U2OS
# Type: toxicity, cell-based
# CONDITION: human, 12 h, 1 µM, compound concentration 1 uM, replicate 2
REPORTED PROPERTY: Population Membrane Permeable-Phenotype (%)

COMPOUND: Br.CS(=O)(=O)Nc1c(O)ccc2c1CCCC2C1=NCCN1 (stereo not given)
RESULT VALUE: 5%
--
COMPOUND: COc1ccccc1N1CCN(C[C@@H](C(=O)NC(C)(C)C)c2ccccc2)CC1.Cl.Cl
RESULT VALUE: 7%
--
COMPOUND: CC[C@@H](C)Nc1nc(C)nc2c(-c3ccc(OC)nc3C)c(C)nn12
RESULT VALUE: 1%
--
COMPOUND: CN1CCN(c2cc(-c3ccccc3)nc(N)n2)CC1
RESULT VALUE: 7%
--
COMPOUND: Cc1noc(-c2ccc(-c3ccc(CC(=O)O)cc3)cc2)c1NC(=O)O[C@H](C)c1ccccc1Cl
RESULT VALUE: 2%
--
COMPOUND: CC(=O)Nc1cccc2c1c(Sc1ccc(Cl)cc1)c(C)n2CC(=O)O
RESULT VALUE: 6%
--
COMPOUND: Cl.N=C(N)NC(=O)Cc1c(Cl)cccc1Cl [GUANFACINE HYDROCHLORIDE]
RESULT VALUE: 8%
--
COMPOUND: CCCOc1ccc2[nH]cc(C3=CCNCC3)c2n1.Cl
RESULT VALUE: 11%
--
COMPOUND: COc1cccc2c1c(NS(=O)(=O)c1ccc(Cl)s1)nn2Cc1cccc(CNC(=O)C(C)(C)O)c1
RESULT VALUE: 7%
--
COMPOUND: Cc1cccc(NC(=O)CN2CCC(c3ccccn3)CC2)c1.Cl.Cl
RESULT VALUE: 4%

---

# Tested on: HEK-293T
# ASSAY SUMMARY: Multiplex assay against HEK293T
# Assay type: toxicity, cell-based
# CONDITION: human, 24 h, 10 µM, compound concentration 10 uM, replicate 1

COMPOUND: CC[C@@H](C)Nc1nc(C)nc2c(-c3ccc(OC)nc3C)c(C)nn12 [PEXACERFONT]
Population Fragmented Nuclei (%): 6
--
COMPOUND: NCCc1cn(S(=O)(=O)c2c(Cl)nc3sccn23)c2ccccc12.O=C(O)C(=O)O
Population Fragmented Nuclei (%): 14
--
COMPOUND: Cc1sc2c(c1C)C(c1ccc(Cl)cc1)=N[C@@H](CC(=O)NCCCCCCCCNC(=O)COc1cccc3c1C(=O)N(C1CCC(=O)NC1=O)C3=O)c1nnc(C)n1-2 (stereo partly drawn)
Population Fragmented Nuclei (%): 11
--
COMPOUND: Cc1noc(-c2ccc(-c3ccc(CC(=O)O)cc3)cc2)c1NC(=O)O[C@H](C)c1ccccc1Cl
Population Fragmented Nuclei (%): 7
--
COMPOUND: CN(C)C(=O)Cn1cc(-c2ccc(-c3cncc4ccccc34)cc2)cn1
Population Fragmented Nuclei (%): 9
--
COMPOUND: CN1CCN(c2cc(-c3ccccc3)nc(N)n2)CC1
Population Fragmented Nuclei (%): 13
--
COMPOUND: CCCOc1ccc2[nH]cc(C3=CCNCC3)c2n1.Cl
Population Fragmented Nuclei (%): 12
--
COMPOUND: CC(C)(C)c1cc(NC(=O)Nc2ccc(-c3cn4c(n3)sc3cc(OCCN5CCOCC5)ccc34)cc2)no1 [QUIZARTINIB]
Population Fragmented Nuclei (%): 8
--
COMPOUND: CC(=O)Nc1cccc2c1c(Sc1ccc(Cl)cc1)c(C)n2CC(=O)O [AZD1981]
Population Fragmented Nuclei (%): 7
--
COMPOUND: C[C@H](N)COC(=O)[C@@H](CCCCN)NC(=O)Cc1c(-c2ccc3ccccc3c2)[nH]c2c1ccc1ccccc12
Population Fragmented Nuclei (%): 6
--
COMPOUND: COc1cccc2c1c(NS(=O)(=O)c1ccc(Cl)s1)nn2Cc1cccc(CNC(=O)C(C)(C)O)c1
Population Fragmented Nuclei (%): 10
--
COMPOUND: CC(C)COc1ccc(CNC(=O)N(Cc2ccc(F)cc2)C2CCN(C)CC2)cc1 [PIMAVANSERIN]
Population Fragmented Nuclei (%): 10
--
COMPOUND: Cc1cccc(NC(=O)CN2CCC(c3ccccn3)CC2)c1.Cl.Cl
Population Fragmented Nuclei (%): 8
--
COMPOUND: Cc1c(CC(=O)O)c2cccnc2n1Cc1ccc(S(C)(=O)=O)cc1C(F)(F)F [FEVIPIPRANT]
Population Fragmented Nuclei (%): 8
--
COMPOUND: Cl.N=C(N)NC(=O)Cc1c(Cl)cccc1Cl [GUANFACINE HYDROCHLORIDE]
Population Fragmented Nuclei (%): 11
--
COMPOUND: CC(C)c1noc(N2CCC(COc3ccc(-c4ccc(S(C)(=O)=O)cc4)nc3)CC2)n1 [GSK-1292263]
Population Fragmented Nuclei (%): 8
--
COMPOUND: CCc1cc2cc(NS(=O)(=O)c3ccc(C#N)cc3)ccc2n(CC)c1=O
Population Fragmented Nuclei (%): 9
--
COMPOUND: Br.CS(=O)(=O)Nc1c(O)ccc2c1CCCC2C1=NCCN1 (stereo not drawn)
Population Fragmented Nuclei (%): 11

---

Recorded Population Apoptotic (%) by entry
# Test system: Fibroblast
# ASSAY SUMMARY: Multiplex assay against human fibroblast
# Format: toxicity, cell-based
# CONDITION: 12 h, 10 µM, compound concentration 10 uM, replicate 2
REPORTED PROPERTY: Population Apoptotic (%)

COMPOUND: O=C(CCCc1ccccc1)Nc1nc2ccccc2c(=O)s1
RESULT VALUE: 31%
//
COMPOUND: Cc1sc2c(c1C)C(c1ccc(Cl)cc1)=N[C@@H](CC(=O)NCCCCCCCCNC(=O)COc1cccc3c1C(=O)N(C1CCC(=O)NC1=O)C3=O)c1nnc(C)n1-2 (stereo partly specified)
RESULT VALUE: 44%
//
COMPOUND: CCc1cc2cc(NS(=O)(=O)c3ccc(C#N)cc3)ccc2n(CC)c1=O
RESULT VALUE: 18%
//
COMPOUND: Cc1onc(-c2ccccc2Cl)c1C(=O)N(C)c1ccc(Cl)cc1
RESULT VALUE: 37%
//
COMPOUND: CCCCCC(O)/C=C/[C@H]1C(=O)CC(O)C1C/C=C\CCCC(=O)O (stereo partly specified)
RESULT VALUE: 34%
//
COMPOUND: COC[C@@H](c1ccc(C(F)(F)F)cc1)N1CCN(C2(C)CCN(C(=O)c3c(C)ncnc3C)CC2)C[C@@H]1C.O=C(O)/C=C\C(=O)O [VICRIVIROC MALEATE]
RESULT VALUE: 33%
//
COMPOUND: Cl.NCCc1ccc(O)c(O)c1 [DOPAMINE HYDROCHLORIDE]
RESULT VALUE: 41%
//
COMPOUND: Cc1c(CC(=O)O)c2cccnc2n1Cc1ccc(S(C)(=O)=O)cc1C(F)(F)F [FEVIPIPRANT]
RESULT VALUE: 22%
//
COMPOUND: C[C@H](N)COC(=O)[C@@H](CCCCN)NC(=O)Cc1c(-c2ccc3ccccc3c2)[nH]c2c1ccc1ccccc12
RESULT VALUE: 62%
//
COMPOUND: O=C(NCCN1CCC(n2c(=O)[nH]c3cc(Cl)ccc32)CC1)c1ccc(F)cc1 [HALOPEMIDE]
RESULT VALUE: 31%
//
COMPOUND: COc1ccccc1N1CCN(C[C@@H](C(=O)NC(C)(C)C)c2ccccc2)CC1.Cl.Cl
RESULT VALUE: 48%
//
COMPOUND: Cc1cnc(-c2cc(N3CCN(C(=O)CCS(C)(=O)=O)CC3)ncc2Cl)c(C)c1
RESULT VALUE: 26%
//
COMPOUND: Cc1cccc(NC(=O)CN2CCC(c3ccccn3)CC2)c1.Cl.Cl
RESULT VALUE: 34%
//
COMPOUND: CCCOc1ccc2[nH]cc(C3=CCNCC3)c2n1.Cl
RESULT VALUE: 40%
//
COMPOUND: CC(=O)Nc1cccc2c1c(Sc1ccc(Cl)cc1)c(C)n2CC(=O)O [AZD1981]
RESULT VALUE: 33%
//
COMPOUND: COc1cccc2c1c(NS(=O)(=O)c1ccc(Cl)s1)nn2Cc1cccc(CNC(=O)C(C)(C)O)c1
RESULT VALUE: 41%
//
COMPOUND: CC[C@@H](C)Nc1nc(C)nc2c(-c3ccc(OC)nc3C)c(C)nn12 [PEXACERFONT]
RESULT VALUE: 38%
//
COMPOUND: CC(C)COc1ccc(CNC(=O)N(Cc2ccc(F)cc2)C2CCN(C)CC2)cc1 [PIMAVANSERIN]
RESULT VALUE: 51%
//
COMPOUND: CC(C)c1noc(N2CCC(COc3ccc(-c4ccc(S(C)(=O)=O)cc4)nc3)CC2)n1 [GSK-1292263]
RESULT VALUE: 35%
//
COMPOUND: Cl.N=C(N)NC(=O)Cc1c(Cl)cccc1Cl [GUANFACINE HYDROCHLORIDE]
RESULT VALUE: 35%
//
COMPOUND: CC(C)(C)c1cc(NC(=O)Nc2ccc(-c3cn4c(n3)sc3cc(OCCN5CCOCC5)ccc34)cc2)no1 [QUIZARTINIB]
RESULT VALUE: 48%
//
COMPOUND: CN1CCN(c2cc(-c3ccccc3)nc(N)n2)CC1
RESULT VALUE: 36%
//
COMPOUND: Br.CS(=O)(=O)Nc1c(O)ccc2c1CCCC2C1=NCCN1 (stereo unspecified)
RESULT VALUE: 33%
//
COMPOUND: N#Cc1c(Oc2cccc(OS(=O)(=O)CCCC(F)(F)F)c2)cccc1C(F)(F)F
RESULT VALUE: 66%
//
COMPOUND: NCCc1cn(S(=O)(=O)c2c(Cl)nc3sccn23)c2ccccc12.O=C(O)C(=O)O
RESULT VALUE: 57%
//
COMPOUND: CC(/C=C1\SC(=S)N(CCCC(=O)Nc2ccc(C(=O)O)c(O)c2)C1=O)=C\c1ccccc1
RESULT VALUE: 40%
//
COMPOUND: Cc1noc(-c2ccc(-c3ccc(CC(=O)O)cc3)cc2)c1NC(=O)O[C@H](C)c1ccccc1Cl
RESULT VALUE: 29%
//
COMPOUND: N#Cc1cc(F)cc(-c2nc(-c3ccc(F)cn3)no2)c1
RESULT VALUE: 28%
//
COMPOUND: O=C1[C@H](Cc2ccc(O)cc2)N2C(=O)CCN(C(=O)NCc3ccccc3)[C@H]2CN1Cc1cccc2ccccc12
RESULT VALUE: 45%
//
COMPOUND: CN[C@@H](C)C(=O)N[C@H](C(=O)N1CCC[C@H]1C(=O)Nc1snnc1-c1ccccc1)C1CCCCC1 [GDC-0152]
RESULT VALUE: 24%
//
COMPOUND: CCCCC1=NC2(CCCC2)C(=O)N1Cc1ccc(-c2ccccc2-c2nnn[nH]2)cc1 [IRBESARTAN]
RESULT VALUE: 45%
